Recorded TGI values for a group of molecules are listed next.
# Test system: HCT-15 colon
# procedure_details: NCI tumour cell line growth inhibition, 48 h

molecule | TGI
CCOP(=O)(OCC)C(c1ccc(F)cc1)N(C(=O)NC(F)(F)F)c1cccc(C(F)(F)F)c1 (stereo not given) | > 100 µM
CC/C=C\C[C@H](O)C/C=C1/C(=O)C=C[C@@H]1C/C=C\CCCC(=O)OC | 2.79 µM
Clc1ccc(C[P+](c2ccccc2)(c2ccccc2)c2ccccc2)c(Cl)c1 | > 100 µM
c1ccc(C2N3CCCCC3[C@@H]3c4[nH]c5ccccc5c4CCN23)nc1 (stereo not given in full) | > 100 µM

Now let's try a different one.
# molecule `CC(=O)[C@@H](C)C(=O)N1C(=O)OC[C@@]12[C@@H]1CC[C@@H](C1)C2(C)C` ; its TGI = > 100 µM
